Entry source: patent US20250011363A1

# TEST_TARGET: acetylcholine receptor
# PROTOCOL_DESCRIPTION: SPR, peptide at 10 uM, AchR immobilized
RECORDED_ENDPOINT: Binding affinity (RU)
Use RU as the unit, but write only the number.

Some entries whose results are on file:
In [3]: df
Out[3]:
                binder  recorded_endpoint  unit_symbol  reported
0  RRNKVR [6mer-1-722]   Binding affinity           RU        12
1  KRMMVK [6mer-1-715]   Binding affinity           RU        18
2  RRKHKR [6mer-1-720]   Binding affinity           RU        11
3  RRDNAR [6mer-1-728]   Binding affinity           RU        23
4  KRHEDR [6mer-1-717]   Binding affinity           RU        22
5  KRNMAK [6mer-1-669]   Binding affinity           RU        23
6  KKDPPR [6mer-1-680]   Binding affinity           RU        27
7  KKCCFR [6mer-1-677]   Binding affinity           RU        22
8  KKAANK [6mer-1-666]   Binding affinity           RU        18
9  RREWIK [6mer-1-687]   Binding affinity           RU        23

Exam item: Determine its reported Binding affinity: KKYEVR [6mer-1-686]
Marked response: 25

Exam item: Determine its reported Binding affinity: KKIWKR [6mer-1-675]
Marked response: 21

Exam item: Determine its reported Binding affinity: KRNNDR [6mer-1-684]
Marked response: 20

Exam item: Determine its reported Binding affinity: RKHPKK [6mer-1-674]
Marked response: 32

Exam item: Determine its reported Binding affinity: RRMCER [6mer-1-704]
Marked response: 16

Exam item: Determine its reported Binding affinity: RRKTWR [6mer-1-701]
Marked response: 13

Exam item: Determine its reported Binding affinity: KREAER [6mer-1-690]
Marked response: 21

Exam item: Determine its reported Binding affinity: KKEWKK [6mer-1-681]
Marked response: 32
